Read-out: Thrombomodulin, THBD (gene 7056)
Experiment: BSK_3C_Thrombomodulin: BioMAP Diversity Plus: 3C Assay for Thrombomodulin Biomarker Activity (AID 2283029)
Details: primary human endothelial cells (HUVEC); actives raise or lower the signal
Calls of active or inactive are those of the source. The calls were made as follows: active = hit-call score of the fitted dose curve at least 0.9, where 1 is the maximum; inactive = score below 0.9.
Answer with one of the outcomes active, inactive

Task: Hello, I am checking results. What call was entered for CCN(CC)C(=O)c1cc(S(=O)(=O)Cc2ccccc2)c(N2CCC(c3ccccc3)CC2)cc1N(CC)CCN(C)C ?
Output: active

Task: Hello, I am checking results. What call was entered for C[C@]12CC[C@@H]3c4ccc(O)cc4CC[C@H]3[C@@H]1CCC2=O ?
Output: inactive

Task: Hello, I am checking results. What call was entered for COCC(C)OCC(C)OCC(C)O (stereo unspecified) ?
Output: inactive

Task: Hello, I am checking results. What call was entered for NC(=O)c1nc(-c2cccc(-c3cc(F)ccc3OCC(F)(F)C(F)(F)F)c2)n[nH]1 ?
Output: active

Task: Hello, I am checking results. What call was entered for CN1C(=O)CC[C@H]1c1cccnc1 ?
Output: inactive

Task: Hello, I am checking results. What call was entered for O=C(O)Cc1cc(I)c(Oc2ccc(O)c(I)c2)c(I)c1 ?
Output: inactive

* * *

Target: human Matrix Metalloproteinase-9 (MMP9), MMP9 (gene 4318) (UniProt P14780)
Sequence (P14780 whole entry, looked up): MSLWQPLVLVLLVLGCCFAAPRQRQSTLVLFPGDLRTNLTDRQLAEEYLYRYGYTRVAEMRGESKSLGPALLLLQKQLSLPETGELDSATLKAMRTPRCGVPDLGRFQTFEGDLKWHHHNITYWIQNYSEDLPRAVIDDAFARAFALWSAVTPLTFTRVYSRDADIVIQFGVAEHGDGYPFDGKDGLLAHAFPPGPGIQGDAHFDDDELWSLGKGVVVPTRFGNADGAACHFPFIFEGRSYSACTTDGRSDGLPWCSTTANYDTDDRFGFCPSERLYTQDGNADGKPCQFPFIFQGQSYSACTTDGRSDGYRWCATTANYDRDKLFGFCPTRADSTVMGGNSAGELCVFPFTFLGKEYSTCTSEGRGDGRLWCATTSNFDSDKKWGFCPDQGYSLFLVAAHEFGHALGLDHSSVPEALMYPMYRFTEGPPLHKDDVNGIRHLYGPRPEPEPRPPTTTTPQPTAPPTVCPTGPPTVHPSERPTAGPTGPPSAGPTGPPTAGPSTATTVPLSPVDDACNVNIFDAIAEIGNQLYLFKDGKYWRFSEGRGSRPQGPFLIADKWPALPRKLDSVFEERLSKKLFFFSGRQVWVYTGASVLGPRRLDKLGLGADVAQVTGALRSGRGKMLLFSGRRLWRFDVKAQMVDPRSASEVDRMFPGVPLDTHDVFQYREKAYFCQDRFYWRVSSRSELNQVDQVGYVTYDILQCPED
Assay: NVS_ENZ_hMMP9: NovaScreen (NVS) Enzymatic Assay for human Matrix Metalloproteinase-9 (MMP9) (AID 2283190);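 also: cell-free recombinant MMP9 protease activity read by fluorescent substrate signal; active means inhibition seen as loss of fluorescence signal versus DMSO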
Records with an inconclusive call do not appear. Calls of active or inactive are those of the source. The calls were made as follows: active = hit-call score of the fitted dose curve at least 0.9, where 1 is the maximum; inconclusive = response in the unintended direction; inactive = score below 0.9.
Answer with one of the outcomes active, inactive

Task: Hello, I am checking results. What call was entered for COc1ccc2cc(S(=O)(=O)N[C@H](CC(=O)N[C@H](Cc3ccc(CN4[C@H](C)CCC[C@@H]4C)cc3)C(=O)N(C)C(C)C)c3ccc4c(c3)OCO4)ccc2c1 ?
Output: inactive

Task: Hello, I am checking results. What call was entered for NCc1cccc(C2CCN(C(=O)c3ccc(C#Cc4ccccc4F)o3)CC2)c1 ?
Output: active

Task: Hello, I am checking results. What call was entered for CN(C)C(=O)C1(N2CCCCC2)CCN(CC[C@@]2(c3ccc(Cl)c(Cl)c3)CN(C(=O)c3ccccc3)CCO2)CC1 ?
Output: inactive

Task: Hello, I am checking results. What call was entered for CCN(Cc1cccnc1)C(=O)c1cccc(Cl)c1[C@]1(C)C(=O)N(Cc2ccc(OC)cc2OC)c2ccc(Cl)cc21 ?
Output: active

Task: Hello, I am checking results. What call was entered for O=C=NCCCCCCN=C=O ?
Output: inactive

Task: Hello, I am checking results. What call was entered for CCOC(=O)O[C@H](C)OC(=O)c1ccc2c(c1)cc(C(=O)NC1CCN(C(C)C)CC1)n2Cc1cc(-c2ccc(Cl)s2)on1 ?
Output: active

Task: Hello, I am checking results. What call was entered for CN(C)c1ccc(C(=C2C=CC(=[N+](C)C)C=C2)c2ccc(N(C)C)cc2)cc1 ?
Output: active

* * *

Read-out: CD38, CD38 (gene 952)
Experiment: BSK_SAg_CD38: BioMAP Diversity Plus: SAg Assay for CD38 Biomarker Activity (AID 2283087)
Details: primary human HUVEC with PBMC; actives raise or lower the signal
Experimental: BSK_SAg is a cell-based, multiplexed-readout assay that uses umbilical vein endothelium and peripheral blood mononuclear cells, a human vascular primary cell co-culture, with measurements taken at 24 hours after chemical dosing in a 96-well plate.BSK_SAg_CD38 is one of 10 assay component(s) measured or calculated from the BSK_SAg assay. […] This assay endpoint, BSK_SAg_CD38, was analyzed with bidirectional fitting relative to DMSO as the negative control and baseline of activity. […]
The source made the active and inactive calls. Rule for the calls: active = hit-call score of the fitted dose curve at least 0.9, where 1 is the maximum; inactive = score below 0.9.
Answer with one of the outcomes true for active, false for inactive

Task: Hello, I am checking results. What call was entered for CCCCOC(=O)CC(CC(=O)OCCCC)(OC(C)=O)C(=O)OCCCC ?
Output: false

Task: Hello, I am checking results. What call was entered for Cc1c2ccccc2c(C)c2c1ccc1ccccc12 ?
Output: true

Task: Hello, I am checking results. What call was entered for CO[C@H]1/C=C/O[C@@]2(C)Oc3c(C)c(O)c4c(O)c(c(/C=N/N5CCN(C)CC5)c(O)c4c3C2=O)NC(=O)/C(C)=C\C=C\[C@H](C)[C@H](O)[C@@H](C)[C@@H](O)[C@@H](C)[C@H](OC(C)=O)[C@@H]1C ?
Output: false

Task: Hello, I am checking results. What call was entered for CN(C)C(=O)C1(N2CCCCC2)CCN(CC[C@@]2(c3ccc(Cl)c(Cl)c3)CN(C(=O)c3ccccc3)CCO2)CC1 ?
Output: true

Task: Hello, I am checking results. What call was entered for O=C(O)c1ccccc1C(=O)OCc1ccccc1 ?
Output: false

Task: Hello, I am checking results. What call was entered for CCCC(=O)OCCC(C)C ?
Output: false
